- Assay: Antimigratory activity in mouse B16F10 cells after 24 hrs by laminin-coated boyden chamber assay
- Type: functional, cell-based
- Protocol conditions: b16-f10
Measured quantity: pKi
Scale: pKi equals -log10([C]), with [C] in mol/L.

Take a look at these entries with their results.
Molecule smiles: O=[P@@]1(c2ccccc2)O[C@H](COCc2ccccc2)[C@@H](OCc2ccccc2)[C@H](OCc2ccccc2)[C@H]1I
pKi: 7.80

Molecule smiles: O=[P@@]1(c2ccccc2)O[C@H](COCc2ccccc2)[C@@H](OCc2ccccc2)[C@H](OCc2ccccc2)[C@H]1Cl
pKi: 7.89

# pKi lookup, item "O=[P@@]1(c2ccccc2)O[C@H](COCc2ccccc2)[C@@H](OCc2ccccc2)[C@H](OCc2ccccc2)[C@H]1Br" 7.70
